target: CD38 (antigen of the Bioveris affinity determination) (Homo sapiens (Human), UniProt P28907 45-300, limits assumed); assay: Bioveris, Fab format
measured.endpoint: Kd (nM)
Report only the number, with the unit nM understood.

Kd for MOR06200 Fab (Fab, V domains shown, Fab format) VH: QVQLVESGGGLVQPGGSLRLSCAASGFTFSSYYMNWVRQAPGKGLEWVSAISNNGNVTYYADSVKGRFTISRDNSKNTLYLQMNSLRAEDTAVYYCARDLPLVYTGFAYWGQGTLVTVSS VL: DIELTQPPSVSVAPGQTARISCSGDNLRHYYVYWYQQKPGQAPVLVIYGDSKRPSGIPERFSGSNSGNTATLTISGTQAEDEADYYCQTYTGGASLVFGGGTKLTVL is 0.0599

According to the records, this binder MOR06183 Fab (Fab, V domains shown, Fab format) VH: QVQLVESGGGLVQPGGSLRLSCAASGFTFSSYYMNWVRQAPGKGLEWVSGINMESTRIYYADSVKGRFTISRDNSKNTLYLQMNSLRAEDTAVYYCARDLPLVYTGFAYWGQGTLVTVSS VL: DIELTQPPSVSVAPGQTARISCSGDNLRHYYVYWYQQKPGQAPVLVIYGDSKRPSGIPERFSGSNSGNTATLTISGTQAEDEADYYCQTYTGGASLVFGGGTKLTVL displays Kd of 0.026
